Collected literature values of pKi measured for Human σ1 receptor (Homo sapiens, UniProt Q99720).
pKi: −log10 of the molar value.

CCC[C@H](c1nc2c(F)cc(F)cc2c(=O)n1CC)N1CCN[C@@H](C)CC1 ... > 6.30
CCN1CC(C2CCN(Cc3ccccc3)CC2)OC2(CC2)C1 (centres unmarked) ... > 7.00
c1ccc(CN2CCCC(c3ccnc4cc(-c5cccnc5)nn34)C2)cc1 (centres unmarked) ... 6.00 to 6.30
c1ccc(CN2CCCC(c3ccnc4cc(-c5ccccn5)nn34)C2)cc1 (centres unmarked) ... < 6.00

Noted pKi for CC(C)CCN1CCC(C2CN(c3ccccc3)C(=O)C3(CC3)O2)CC1 (centres unmarked) , tested on Human σ1 receptor (Homo sapiens, UniProt Q99720): > 6.30

Noted pKi for `Cc1nn2c([C@H]3CCCN([C@@H](CO)c4ccccc4)C3)ccnc2c1-c1ccncc1` , tested on Human σ1 receptor (Homo sapiens, UniProt Q99720): < 6.00

Noted pKi for CCCC(c1nc2cc(C#N)ccc2c(=O)n1CC)N1CCCN(C)CC1 (centres unmarked) , tested on Human σ1 receptor (Homo sapiens, UniProt Q99720): < 6.00

Noted pKi for Cc1nn2c(C3CCCN(Cc4ccc(Cl)cc4)C3)ccnc2c1N(C)C (centres unmarked) , tested on Human σ1 receptor (Homo sapiens, UniProt Q99720): > 6.30

Noted pKi for O=C(c1ccccc1)N1CC(C2CCN(CCc3ccccc3)CC2)OC2(CC2)C1 (centres unmarked) , tested on Human σ1 receptor (Homo sapiens, UniProt Q99720): > 6.30

----------
Collected literature values of pKi measured for Human σ1 receptor (Homo sapiens).
pKi: −log10 of the molar value.

pKi reading for Cc1nn2c(C3CCCN(Cc4ccc(Cl)cc4Cl)C3)ccnc2c1-c1ccncc1 (stereo not drawn) : 6.00 to 6.30

pKi reading for `CCN1CC2(CN(CCC(C)C)C2)OC2(CC2)C1=O` : > 7.00

pKi reading for `CCC[C@@H](c1nc2ccc(Br)cc2c(=O)n1CC)N1CCNC[C@H](O)C1` : < 6.00

----------
Collected literature values of Ki measured for Human σ1 receptor (Homo sapiens, UniProt Q99720).

Cc1cc2nccc(C3CCCN(Cc4ccccc4)C3)n2n1 (centres unmarked) ... 500 to 1000 nM
CCCC(c1nc2ccc(Br)cc2c(=O)n1CC(C)C)N1CCCN(C)CC1 (centres unmarked) ... 500 to 1000 nM
CCN1CC(C2CCN(CCc3ccccc3)CC2)OC2(CC2)C1 (centres unmarked) ... < 500 nM
CCCC(c1nc2ccc(CC)cc2c(=O)n1CC)N1CCCN(C)CC1 (centres unmarked) ... > 1000 nM
Cc1nn2c([C@@H]3CCCN(Cc4ccc(Cl)cc4)C3)ccnc2c1CN[C@@H](C)C1CCOCC1 ... < 500 nM
CCCC(c1nc2ccc(Br)cc2c(=O)n1CCC)N1CCCN(C)CC1 (centres unmarked) ... < 500 nM

Noted Ki for `CCC[C@@H](c1nc2ccc(OC)cc2c(=O)n1CC)N1CCCN(C)CC1` , tested on Human σ1 receptor (Homo sapiens, UniProt Q99720): > 1000 nM

Noted Ki for Cc1nn2c(C3CCCN(Cc4ccc(Cl)cc4)C3)ccnc2c1-c1ccc(C(N)=O)cc1 (centres unmarked) , tested on Human σ1 receptor (Homo sapiens, UniProt Q99720): > 1000 nM

Noted Ki for `CCC[C@H](c1nc2ccc(F)c(F)c2c(=O)n1CC)N1CCCN(C)CC1` , tested on Human σ1 receptor (Homo sapiens, UniProt Q99720): < 500 nM

Noted Ki for Cc1nn2c(C3CCCN(Cc4ccc(Cl)cc4Cl)C3)ccnc2c1CN(C)C (centres unmarked) , tested on Human σ1 receptor (Homo sapiens, UniProt Q99720): < 500 nM

Noted Ki for Cc1nn2c(C3CCCN(Cc4ccc(Cl)cc4)C3)ccnc2c1CNCc1ccncc1 (centres unmarked) , tested on Human σ1 receptor (Homo sapiens, UniProt Q99720): < 500 nM
